system: HBV rcDNA; test: HepDE19 assay with bDNA quantitation of HBV rcDNA; type: cell-based, hepatitis B virus; details: HepDE19 assay, inhibition of formation of relaxed circular DNA (rcDNA), bDNA quantitation; read-out: DE-19bDNA EC50
Label rule met when EC50 is strictly below 0.09 µM; at or above that, label rule not met.

[[record]]
compound = "CC(c1c[nH]c(=O)c2ccccc12)N(Cc1cncs1)C(=O)Nc1ccc(F)c(Cl)c1 (single isomer, unassigned) [Compound 323]"
target_or_test_system = "HBV rcDNA"
answer_label = "rule met"

[[record]]
compound = "CC(c1cnc(S(C)(=O)=O)c2ccccc12)N(C)C(=O)Nc1ccc(F)c(Cl)c1 (single isomer, unassigned) [Compound 314]"
target_or_test_system = "HBV rcDNA"
answer_label = "rule not met"

[[record]]
compound = "CNC(=O)c1ncc(C(C)N(C)C(=O)Nc2ccc(F)c(Cl)c2)c2ccccc12 (single isomer, unassigned) [Compound 316]"
target_or_test_system = "HBV rcDNA"
answer_label = "rule not met"

[[record]]
compound = "CC(C)CN(C(=O)Nc1ccc(F)c(Cl)c1)C(C)c1cnc(-n2cncn2)c2ccccc12 (single isomer, unassigned) [Compound 345]"
target_or_test_system = "HBV rcDNA"
answer_label = "rule met"

[[record]]
compound = "CC(c1c[nH]c(=O)c2c(F)c(F)ccc12)N(CCCO)C(=O)Nc1ccc(F)c(Cl)c1 (single isomer, unassigned) [Compound 334]"
target_or_test_system = "HBV rcDNA"
answer_label = "rule not met"


---

Reported EC50 values follow for various compounds
test system: HBV rcDNA; experiment: HepDE19 assay with bDNA quantitation of HBV rcDNA; assay type: cell-based, hepatitis B virus; conditions: HepDE19 assay, inhibition of formation of relaxed circular DNA (rcDNA), bDNA quantitation; read-out: DE-19bDNA EC50
metric_name: EC50

[[record]]
compound = "CC(c1c[nH]c(=O)c2c(F)c(F)ccc12)N(C)C(=O)NCc1ccc(F)cc1 (single isomer, unassigned) [Compound 492]"
metric_name = "EC50"
measured = "840 nM"

[[record]]
compound = "CC(c1c[nH]c(=O)c2cc(F)c(F)cc12)N(C)C(=O)Nc1ccc(F)c(F)c1 (single isomer, unassigned) [Compound 408]"
metric_name = "EC50"
measured = "3400 nM"

[[record]]
compound = "CC(c1c[nH]c(=O)c2ccc(F)cc12)N(CCS(N)(=O)=O)C(=O)Nc1ccc(F)c(Cl)c1 (single isomer, unassigned) [Compound 381]"
metric_name = "EC50"
measured = "1400 nM"

[[record]]
compound = "CC(C)CN(C(=O)Nc1ccc(F)c(Cl)c1)C(C)c1cnc(-n2cncn2)c2ccccc12 (single isomer, unassigned) [Compound 344]"
metric_name = "EC50"
measured = "2300 nM"

[[record]]
compound = "CC(c1c[nH]c(=O)c2cc(F)c(F)cc12)N(C)C(=O)Nc1cccc(F)c1F (single isomer, unassigned) [Compound 431]"
metric_name = "EC50"
measured = "290 nM"

[[record]]
compound = "CC(c1c[nH]c(=O)c2ccc(F)cc12)N(CC(CO)CO)C(=O)Nc1ccc(F)c(Cl)c1 (single isomer, unassigned) [Compound 295]"
metric_name = "EC50"
measured = "1900 nM"

[[record]]
compound = "CC(c1c[nH]c(=O)c2c(F)cc(F)cc12)N(C)C(=O)Nc1ccc(F)cc1 (single isomer, unassigned) [Compound 370]"
metric_name = "EC50"
measured = "5600 nM"

[[record]]
compound = "CC(c1c[nH]c(=O)c2ccc(F)cc12)N(CC1COC(C)(C)OC1)C(=O)Nc1ccc(F)c(Cl)c1 (single isomer, unassigned) [Compound 283]"
metric_name = "EC50"
measured = "43 nM"

[[record]]
compound = "CC(c1c[nH]c(=O)c2ccccc12)N(Cc1cscn1)C(=O)Nc1ccc(F)c(Cl)c1 (single isomer, unassigned) [Compound 312]"
metric_name = "EC50"
measured = "4600 nM"

[[record]]
compound = "CC(c1c[nH]c(=O)c2c(F)c(F)ccc12)N(CCS(N)(=O)=O)C(=O)Nc1ccc(F)c(Cl)c1 (single isomer, unassigned) [Compound 392]"
metric_name = "EC50"
measured = "26 nM"


---

tested on: HBV rcDNA; assay: HepDE19 assay with bDNA quantitation of HBV rcDNA; type: cell-based, hepatitis B virus; settings: Hepatitis B virus, HepDE19, HepDE19 assay, inhibition of formation of rcDNA; read-out: DE-19bDNA EC50
pEC50: −log10 of the molar value.
metric_name: pEC50

[[record]]
molecule = "CC(c1c[nH]c(=O)c2ccccc12)N(CC(=O)N(C)C)C(=O)Nc1ccc(F)c(Cl)c1 (racemic)"
target_or_test_system = "HBV rcDNA"
metric_name = "pEC50"
measured = 6.08

[[record]]
molecule = "O=C(Nc1ccc(F)c(Cl)c1)N(Cc1c[nH]c(=O)c2ccccc12)C1CC1"
target_or_test_system = "HBV rcDNA"
metric_name = "pEC50"
measured = 6.09

[[record]]
molecule = "CC(c1c[nH]c(=O)c2ncccc12)N(C)C(=O)Nc1ccc(F)c(Cl)c1 (stereo not drawn)"
target_or_test_system = "HBV rcDNA"
metric_name = "pEC50"
measured = 6.06

[[record]]
molecule = "CC(=O)NCCN(C(=O)Nc1ccc(F)c(Cl)c1)C(C)c1c[nH]c(=O)c2ccccc12 (racemic)"
target_or_test_system = "HBV rcDNA"
metric_name = "pEC50"
measured = 6.00

[[record]]
molecule = "CNC(=O)CN(C(=O)Nc1ccc(F)c(Cl)c1)C(C)c1c[nH]c(=O)c2ccccc12 (stereo not drawn) [Compound 116]"
target_or_test_system = "HBV rcDNA"
metric_name = "pEC50"
measured = 6.00

[[record]]
molecule = "CCN(Cc1cnc(OC)c2ccccc12)C(=O)Nc1ccc(F)c(Cl)c1"
target_or_test_system = "HBV rcDNA"
metric_name = "pEC50"
measured = 5.92

[[record]]
molecule = "CC(c1cn(CC(F)(F)F)c(=O)c2ccccc12)N(C)C(=O)Nc1ccc(F)c(Cl)c1 (racemic)"
target_or_test_system = "HBV rcDNA"
metric_name = "pEC50"
measured = 6.11

[[record]]
molecule = "CC(c1c[nH]c(=O)c2cc(F)c(F)cc12)N(C)C(=O)Nc1ccc(F)c(Cl)c1 (single isomer, unassigned)"
target_or_test_system = "HBV rcDNA"
metric_name = "pEC50"
measured = 6.00

[[record]]
molecule = "CC(c1c[nH]c(=O)c2ccncc12)N(C)C(=O)Nc1ccc(F)c(Cl)c1 (stereo not drawn)"
target_or_test_system = "HBV rcDNA"
metric_name = "pEC50"
measured = 6.00


Numbers sourced from patent US20230045421A1.
